Where do the numbers come from? From the supplement of paper PMC10600219.

- System: NCI-H2228 parental
- PROTOCOL SUMMARY: cell viability relative to vehicle (fraction of vehicle); NCI-H2228 is an ALK-positive lung cancer line and DTP means drug-tolerant persister; higher = less growth inhibition
- CONDITION DESCRIPTION: 100 nM; treatment time 6 days
The full ranking holds about 2,800 compounds; the median of “cell viability relative to vehicle” is about 1.1, and the lowest 2% start at about 0.19. Many of the other results were omitted from the sample, so the lowest values are more common in it than they were.
Define the label as 1.0 when cell viability is strictly less than 0.9 and as 0.0 in all remaining cases.

Illustrative cases are given below, each with its answer.
- COMPOUND: "Cc1csc(-c2nnc(Nc3ccc(Oc4ncccc4-c4ccnc(N)n4)cc3)c3ccccc23)c1"
  ANSWER LABEL: 1.0
- COMPOUND: "Cc1cc(Nc2cc(N3CCN(C)CC3)nc(/C=C/c3ccccc3)n2)n[nH]1"
  ANSWER LABEL: 1.0

IN: Dear colleague, could you confirm whether cell viability of C[C@@H](Oc1cc(-n2cnc3ccc(CN4CCN(C)CC4)cc32)sc1C(N)=O)c1ccccc1C(F)(F)F falls below 0.9? Thanks.
OUT: 1.0

IN: Hi there! Is cell viability for CCc1ccc(-c2nc(CSCC(=O)NCCc3ccccc3)c(C)o2)cc1 below 0.9, do you know?
OUT: 0.0

IN: Determine whether this molecule shows cell viability lower than 0.9 (ties excluded): Cc1cc(O)c(C(=O)CCC(C)C)c(=O)o1
OUT: 0.0

IN: Is cell viability of Cc1cc(Nc2cc(N3CCN(C)CC3)nc(Sc3ccc(NC(=O)C4CC4)cc3)n2)n[nH]1 strictly below 0.9?
OUT: 1.0

IN: Is cell viability of Cc1nc(Nc2ncc(C(=O)Nc3c(C)cccc3Cl)s2)cc(N2CCN(CCO)CC2)n1 strictly below 0.9?
OUT: 1.0

IN: Is cell viability of C/C=C1\NC(=O)[C@H]2CSSCC/C=C/[C@H](CC(=O)N[C@H](C(C)C)C(=O)N2)OC(=O)[C@H](C(C)C)NC1=O strictly below 0.9?
OUT: 1.0
